- target-entity: UniProtKB Q9NWZ3
- Sequence (Q9NWZ3 whole entry): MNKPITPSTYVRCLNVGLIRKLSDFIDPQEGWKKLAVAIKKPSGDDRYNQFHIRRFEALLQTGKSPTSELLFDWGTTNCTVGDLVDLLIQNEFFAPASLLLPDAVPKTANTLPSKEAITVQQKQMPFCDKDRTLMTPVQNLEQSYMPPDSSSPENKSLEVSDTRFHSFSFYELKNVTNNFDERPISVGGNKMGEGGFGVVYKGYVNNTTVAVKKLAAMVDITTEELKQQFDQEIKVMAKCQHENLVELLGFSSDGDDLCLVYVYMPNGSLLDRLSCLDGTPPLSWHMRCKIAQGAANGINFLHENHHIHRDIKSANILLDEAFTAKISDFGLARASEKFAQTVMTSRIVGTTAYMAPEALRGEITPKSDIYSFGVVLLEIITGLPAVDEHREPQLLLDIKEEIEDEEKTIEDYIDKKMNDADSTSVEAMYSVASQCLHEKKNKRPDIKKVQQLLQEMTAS
- test-method-notes: biochemical
Would you kindly list IC50 for each of these molecules?

Report IC50 for every entry below.
1. COCCCc1cn2cc(C(=O)Nc3cccc(C(F)F)n3)c(OC(C)C)cc2n1
2. CCOc1nc(C(=O)Nc2ccn(CC3CC3)n2)cn2cc(C34CCC(C)(C3)OC4)nc12 (centres unmarked)
3. COc1cc2nc(C3CCOCC3)cn2cc1C(=O)Nc1cccc2c1CCC2
4. CC(C)Oc1cc2nc(C34CCC(C3)OC4)cn2cc1C(=O)Nc1ccn(C)n1 (centres unmarked)
5. CCOc1nc(C(=O)Nc2cc(F)cnc2OC)cn2cc([C@@H]3CCCOC3)nc12 (single isomer, unassigned)
6. COc1cc2nc(C3CCOCC3)cn2cc1C(=O)Nc1cccc(Cl)c1OC
7. CC12CC(c3cn4cc(C(=O)Nc5cccn(C(F)F)c5=O)c(OC5CCOCC5)cc4n3)(CO1)C2

1: 0.4 nM; 2: 8.7 nM; 3: 9.2 nM; 4: 8.5 nM; 5: 5.6 nM; 6: 5.3 nM; 7: 2.4 nM

Per the records, this molecule ( `CCOc1nc(C(=O)Nc2cccc(C(F)F)n2)cn2cc(C34COC(C)(C3)C4)nc12` ) has IC50 equal to 2.4 nM
